system: MS2 coat protein; assay: apparent KD of MS2 coat protein; higher = weaker reporter binding; conditions: Eterna round: R107; input ligand: tryptophan 2.4 mM
readout: apparent KD of MS2 coat protein (nM)
Numbers only, in nM.

Sample answers from the record:
- seq: "UUUUAAAGCAUGGCGUAUCGGAAAACCGAUACCAGUACAGAAAUGUACCCUUGGCAGCGGAAUUUUACAUGAGGAUCACCCAUGU [Ex Theophylline A 1]"
  readout: "apparent KD of MS2 coat protein"
  obs.value: 12.7
- seq: "ACAUGAGGAUCACCCAUGUAGUGGCACGAUACCAGCUGAUCCCGUGGCCCUUGGCAGCGUCCGGUGUGGUCUGCCGGGAUGGAGC [WBWMULLIN]"
  readout: "apparent KD of MS2 coat protein"
  obs.value: 24.8

# input Item: AAGCAGGGUGUAAAAUAAAUAAUCACUGAUACCAGACUAUGAGAUGUCCCUUGGCAGCAGAAACAUGAGGAUCACCCAUGUAAUA [JR_Nu_ExcTheophyA_Sub029] Test system: MS2 coat protein Read-out: apparent KD of MS2 coat protein Value: ?
# output 27.3

###

tested on: MS2 coat protein; experiment: apparent KD of MS2 coat protein; higher = weaker reporter binding; settings: Eterna round: R107; input ligand: arginine 13.2 mM
Kindly state apparent KD of MS2 coat protein for each of the entries shown.
Answers are plain numbers, in µM.

Sample answers from the record:
- seq: "UUGUUGUUUGGAAGGAGCGUGGAUGAGUUAGAACAUGAGGAUCACCCAUGUUGGAUGAUACCACAGGUAGGUCGCCGGGUGGUGG [11.Z]"
  readout: "apparent KD of MS2 coat protein"
  obs.value: 0.229
- seq: "UCAUAAGUACCGGUCCUCAGAUCCUCAUGACGAGGACCGGUACGGCCGCCACUCGAAACAUGAGGAUCACCCAUGUAAUAAUACU [Brourdmod15]"
  readout: "apparent KD of MS2 coat protein"
  obs.value: 0.0225
- seq: "AGAGUCUAGUCGGCCGCCACUCAUGUCCAAUGGACAUGAGGAUCACCCAUGUACCGAAGGUACAUGAGGACCGGGACUGGACUCA [Omei Tryp B SS C v6]"
  readout: "apparent KD of MS2 coat protein"
  obs.value: 0.0436

For the 2 sequences below, give their apparent KD of MS2 coat protein values.
1. AAUAACAUGAGGAUCACCCAUGUAAAAGAUACCAGAGUGAUGAUCCUCCCUUGGCAGCUUAACGCUGAUUGGAAACAAUCAGCGA [Mat - Same State Theophlline A - Mod of Eli - D1]
2. CAUACUUUAGUAUGACGUGUGGGCAGUGAUACCAGAUACGAAAGUAUCCCUUGGCAGCACAACAUGAGGAUCACCCAUGUAAUUA [Theophylline A 1]

# output
1: 0.0341; 2: 0.0219

For the 2 sequences below, give their apparent KD of MS2 coat protein values.
1. AACGUAUACAGAAGGAGCGUGAAUUAUUUUAUUUUUUUAUAAACAUGAGGAUCACCCAUGUCACAGGUAGGUCGCUGUAUUCGUA [JR_ExcArginiB_Sub018]
2. GGCACCAGGCGAAGGAGCGUGAAGACAUGAGGAUCACCCAUGUAGAGGCCCGGACAGGGUUCGCAGGUAGGUCGCGCCUGGUGCC [#1 Same State - Arginine B Attempt #9 (HarryS)]

# output
0.0238
0.0229

Data provenance is the supplement of paper PMC9170038.
